# test-name: in vivo
# setup-conditions: beagle, dog, iv, 100 mg/kg
readout-label: half-life (h)
The reply should be a number in h, with the unit left off.

Query: Give the measured half-life for `COc1ccc2cc3[n+](cc2c1OC)CCc1cc2c(cc1-3)OCO2`
Response: 12.6

* * *

# test-name: in vivo
# setup-conditions: rabbit, po, 50 mg/kg
readout-label: Cmax (ng/mL)
The reply should be a number in ng/mL, with the unit left off.

Query: Give the measured Cmax for `COc1ccc2cc3[n+](cc2c1OC)CCc1cc2c(cc1-3)OCO2`
Response: 92.7

* * *

# test-name: clinical
# setup-conditions: human, in vivo, po, 300 mg
readout-label: Cmax (ng/mL)
The reply should be a number in ng/mL, with the unit left off.

Query: Give the measured Cmax for COc1ccc2cc3[n+](cc2c1OC)CCc1cc2c(cc1-3)OCO2 [berberine]
Response: 395

* * *

# test-name: in vivo
# Parameters: species or system canine (beagle)
# setup-conditions: beagle, dog, 700 mg/kg
readout-label: concentration at 7 hours (ng/mL)
The reply should be a number in ng/mL, with the unit left off.

Query: Give the measured concentration at 7 hours for `COc1ccc2cc3[n+](cc2c1OC)CCc1cc2c(cc1-3)OCO2`
Response: 36.4

* * *

# test-name: Toxicity analysis (LD50) in mice
# setup-conditions: mouse, in vivo, intraperitoneal, peritoneal injection
readout-label: LD50

Query: Give the measured LD50 for `COc1ccc2cc3[n+](cc2c1OC)CCc1cc2c(cc1-3)OCO2`
Response: 30 to 32.2 mg/kg

* * *

# setup-conditions: Distill Water; amount of solute 10 mg
Mark not met for Amount of Solvent values under 6, and met for everything at or above.

- molecule: "CC(=O)[O-].COc1ccc2cc3[n+](cc2c1OC)CCc1cc2c(cc1-3)OCO2 [3. Acetate]"
  group: "met"
- molecule: "COc1ccc2cc3[n+](cc2c1OC)CCc1cc2c(cc1-3)OCO2.COc1ccc2cc3[n+](cc2c1OC)CCc1cc2c(cc1-3)OCO2.O=S(=O)([O-])[O-] [8. Sulfate]"
  group: "not met"
- molecule: "COc1ccc2cc3[n+](cc2c1OC)CCc1cc2c(cc1-3)OCO2.O=C([O-])c1ccccc1 [13. Benzoate]"
  group: "met"
- molecule: "COc1ccc2cc3[n+](cc2c1OC)CCc1cc2c(cc1-3)OCO2.CS(=O)(=O)[O-] [6. Methanesulfonate]"
  group: "not met"
- molecule: "COc1ccc2cc3[n+](cc2c1OC)CCc1cc2c(cc1-3)OCO2.O=S(=O)([O-])O [7. Hydrosulfate]"
  group: "not met"
- molecule: "COc1ccc2cc3[n+](cc2c1OC)CCc1cc2c(cc1-3)OCO2.O=C([O-])C(F)(F)F [16. Trifluoroacetate]"
  group: "met"

Query: Tell me whether Amount of Solvent is at least 6 here: COc1ccc2cc3[n+](cc2c1OC)CCc1cc2c(cc1-3)OCO2.Cc1ccc(S(=O)(=O)[O-])cc1 [15. Toluenesulfonate]
Response: met

* * *

# test-name: clinical
# setup-conditions: human, in vivo, po, 300 mg
readout-label: AUC
Answer with the figure and its unit, nothing else.

Query: Give the measured AUC for COc1ccc2cc3[n+](cc2c1OC)CCc1cc2c(cc1-3)OCO2 [berberine]
Response: 2800 ng·h/mL
